These data points were gathered from patent US8530493B2.

System: RKO p27 or p21 induced (arrested) colon adenocarcinoma cells
Assay: Alamar Blue cell viability assay, RKO p27 or p21 induced (arrested)
Type: cell-based
Conditions: Homo sapiens, RKOp27, Table B2, cells arrested by Ponasterone A, 72 hours, read-out: −log EC50 RKO p27 or p21 induced (arrested) (converted)
Protocol: To determine the cell cycle specific mode of action, subclones of RKO colon adenocarcinoma cells (RKOp21 or RKOp27 as described by Schmidt et al. in Oncogene 19, 2423-2429; 2000) are seeded into 96 well flat bottom plates at a density of 16000 cells per well in a volume of 50 μl per well in DMEM growth medium with 10% FCS containing 10 μM Ponasterone A. 24 hours after seeding the 50 μl each of the compound dilutions in DMEM medium are added into each well of the 96-well plate. […]
# EC50 annotations

INSERT INTO assay_data (molecule, result) VALUES
  ('C#CCNCCN1C(=O)N2[C@H](c3cccc(O)c3)c3[nH]c4ccc(OC)cc4c3C[C@@]2(C)C1=O (racemic)', '≥ 3160 nM'),
  ('COc1ccc2[nH]c3c(c2c1)C[C@@]1(C)C(=O)N(CCCN2CCCC2)C(=O)N1[C@@H]3c1cccc(O)c1 (racemic)', '≥ 3160 nM'),
  ('COc1ccc2[nH]c3c(c2c1)C[C@@]1(C)C(=O)N(CCCN2CC=CC2)C(=O)N1[C@@H]3c1cccc(O)c1 (racemic)', '≥ 316 nM'),
  ('C[C@@]12Cc3c([nH]c4ccc(Cl)cc34)[C@@H](c3cccc(O)c3)N1C(=O)N(CCN1CCC(F)(F)C1)C2=O (racemic)', '≥ 316 nM'),
  ('COc1ccc2[nH]c3c(c2c1)C[C@@]1(C)C(=O)N(CCN2CC=CCC2)C(=O)N1[C@@H]3c1cccc(O)c1 (racemic)', '≥ 3160 nM');

Value lookup for EC50; key = CCN(CCO)CCN1C(=O)N2[C@H](c3cccc(O)c3)c3[nH]c4ccc(Cl)cc4c3C[C@@]2(C)C1=O (racemic)
≥ 316 nM

Try CCN(CCOC)CCN1C(=O)N2[C@H](c3cccc(O)c3)c3[nH]c4ccc(OC)cc4c3C[C@@]2(C)C1=O (racemic) next.
≥ 3160 nM

Now consider CCN(CCOC)CCN1C(=O)N2[C@H](c3cccc(O)c3)c3[nH]c4ccc(Cl)cc4c3C[C@@]2(C)C1=O (racemic) .
≥ 316 nM

Do the same for CCN(CC)CCCN1C(=O)N2[C@H](c3cccc(O)c3)c3[nH]c4ccc(OC)cc4c3C[C@@]2(C)C1=O (racemic) please
≥ 316 nM

Next entry: C=CCNCCN1C(=O)N2[C@H](c3cccc(O)c3)c3[nH]c4ccc(OC)cc4c3C[C@@]2(C)C1=O (racemic)
≥ 3160 nM

Now the molecule COc1ccc2[nH]c3c(c2c1)C[C@@]1(C)C(=O)N(CCN(C)C(C)C)C(=O)N1[C@@H]3c1cccc(O)c1 (racemic)
≥ 3160 nM

Ok, now COc1ccc2[nH]c3c(c2c1)C[C@@]1(C)C(=O)N(CCCN2CC=CCC2)C(=O)N1[C@@H]3c1cccc(O)c1 (racemic)
≥ 316 nM

Item: COc1ccc2[nH]c3c(c2c1)C[C@@]1(C)C(=O)N(CCCN2CCCCCC2)C(=O)N1[C@@H]3c1cccc(O)c1 (racemic)
≥ 316 nM

###

Test system: RKO p27 or p21 induced (arrested) colon adenocarcinoma cells
Experiment: Alamar Blue cell viability assay, RKO p27 or p21 induced (arrested)
Assay type: cell-based
Details: Homo sapiens, RKOp27, Table B2, cells arrested by Ponasterone A, 72 hours, read-out: −log EC50 RKO p27 or p21 induced (arrested) (converted)
measured.quantity: EC50

INSERT INTO results (compound, test_system, result) VALUES
  ('CCOc1ccc2[nH]c3c(c2c1)C[C@@]1(C)C(=O)N(CCBr)C(=O)N1[C@@H]3c1cccc(O)c1 (racemic)', 'RKO p27 or p21 induced (arrested) colon adenocarcinoma cells', '≥ 0.316 µM'),
  ('C[C@@]12Cc3c([nH]c4ccc(Cl)cc34)[C@@H](c3cccc(O)c3)N1C(=O)N(CCCNC1CCC1)C2=O (racemic)', 'RKO p27 or p21 induced (arrested) colon adenocarcinoma cells', '≥ 3.16 µM'),
  ('CCN(CCCN1C(=O)N2[C@H](c3cccc(O)c3)c3[nH]c4ccc(OC)cc4c3C[C@@]2(C)C1=O)CCOC (racemic)', 'RKO p27 or p21 induced (arrested) colon adenocarcinoma cells', '≥ 3.16 µM');

Which EC50 is listed for COc1ccc2[nH]c3c(c2c1)C[C@@]1(C)C(=O)N(CCNCCO)C(=O)N1[C@@H]3c1cccc(O)c1 (racemic) ?
≥ 3.16 µM

Same thing, different compound: CC(C)CNCCN1C(=O)N2[C@H](c3cccc(O)c3)c3[nH]c4ccc(Cl)cc4c3C[C@@]2(C)C1=O (racemic)
≥ 3.16 µM

One more compound: COc1ccc2[nH]c3c(c2c1)C[C@@]1(C)C(=O)N(CCCN2CCC(C)CC2)C(=O)N1[C@@H]3c1cccc(O)c1 (racemic)
≥ 0.316 µM

Request: C[C@@]12Cc3c([nH]c4ccc(Cl)cc34)[C@@H](c3cccc(O)c3)N1C(=O)N(CCCN1CCC1)C2=O (racemic)
≥ 3.16 µM

# iterate: COc1ccc2[nH]c3c(c2c1)C[C@@]1(C)C(=O)N(CCCN2CCCCC2)C(=O)N1[C@@H]3c1cccc(O)c1 (racemic)
≥ 0.316 µM

###

Tested on: RKO p27 uninduced (proliferating) colon adenocarcinoma cells
Assay: Alamar Blue cell viability assay, RKO p27 uninduced (proliferating)
Format: cell-based
Conditions: Homo sapiens, RKOp27, Table B1, anti-proliferative/cytotoxic activity, 72 hours, read-out: −log EC50 RKO p27 uninduced (proliferating) (converted)
measured.quantity: EC50

For orientation, consider the following solved cases.
INSERT INTO measurements (compound, result) VALUES
  ('COc1ccc2[nH]c3c(c2c1)C[C@@]1(C)C(=O)N(CCCn2ccnc2)C(=O)N1[C@@H]3c1cccc(O)c1 (racemic) [Example 20]', '≤ 39.8 nM'),
  ('COc1ccc2[nH]c3c(c2c1)C[C@@]1(C)C(=O)N(CCBr)C(=O)N1[C@@H]3c1cccc(O)c1 (racemic) [Example 24]', '39.8 to 251 nM'),
  ('CN(C)CCCN1C(=O)N2[C@H](c3cccc(O)c3)c3[nH]c4ccc(Cl)cc4c3C[C@@]2(C)C1=O (racemic) [Example 16]', '≤ 39.8 nM'),
  ('COc1ccc2[nH]c3c(c2c1)C[C@@]1(C)C(=O)N(CCN2CCCC2)C(=O)N1[C@@H]3c1cccc(O)c1 (racemic) [Example 11]', '≤ 39.8 nM'),
  ('CN1C(=O)N2[C@H](c3cccc(O)c3)c3[nH]c4ccc(Br)cc4c3C[C@@]2(C)C1=O (racemic) [Example 4]', '39.8 to 251 nM'),
  ('CN1C(=O)N2[C@H](c3cccc(O)c3)c3[nH]c4ccc(Cl)cc4c3C[C@@]2(C)C1=O (racemic) [Example 5]', '39.8 to 251 nM');

// next entry
Returns the measured EC50 for the input compound. Input: CCOc1ccc2[nH]c3c(c2c1)C[C@@]1(C)C(=O)N(C)C(=O)N1[C@@H]3c1cccc(O)c1 (racemic) [Example 1]
39.8 to 251 nM

###

Overview of recorded EC50 for various molecules
Tested on: RKO p27 or p21 induced (arrested) colon adenocarcinoma cells
Test: Alamar Blue cell viability assay, RKO p27 or p21 induced (arrested)
Format: cell-based
Conditions: Homo sapiens, RKOp27, Table B2, cells arrested by Ponasterone A, 72 hours, read-out: −log EC50 RKO p27 or p21 induced (arrested) (converted)

Could you tell me which EC50 is on file for COc1ccc2[nH]c3c(c2c1)C[C@@]1(C)C(=O)N(CCCNC(C)C)C(=O)N1[C@@H]3c1cccc(O)c1 (racemic) [Example 67] ?
≥ 3.16 µM

Now give it for CC(C)N(C)CCCN1C(=O)N2[C@H](c3cccc(O)c3)c3[nH]c4ccc(Cl)cc4c3C[C@@]2(C)C1=O (racemic) [Example 133] too.
≥ 0.316 µM

And for COc1ccc2[nH]c3c(c2c1)C[C@@]1(C)C(=O)N(CCCN2CCC2)C(=O)N1[C@@H]3c1cccc(O)c1 (racemic) [Example 87] ?
≥ 3.16 µM

###

Tested on: RKO p27 or p21 induced (arrested) colon adenocarcinoma cells
Test: Alamar Blue cell viability assay, RKO p27 or p21 induced (arrested)
Type: cell-based
Settings: Homo sapiens, RKOp27, Table B2, cells arrested by Ponasterone A, 72 hours, read-out: −log EC50 RKO p27 or p21 induced (arrested) (converted)
measured.quantity: EC50

INSERT INTO assay_data (compound, result) VALUES
  ('C[C@@]12Cc3c([nH]c4ccc(Cl)cc34)[C@@H](c3cccc(O)c3)N1C(=O)N(CCN1CCOCC1)C2=O (racemic) [Example 120]', '≥ 0.316 µM');

Next, consider the following compound.
Give the measured EC50 of COCCNCCN1C(=O)N2[C@H](c3cccc(O)c3)c3[nH]c4ccc(OC)cc4c3C[C@@]2(C)C1=O (racemic) [Example 83] .
≥ 3.16 µM
